Assay: inhibition of 3D7 malaria parasite growth – strain 3D7 (AID 2306);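 note: 0% = DMSO wells and 100% = chloroquine plus artemisinin control wells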
Measurement context: P. falciparum 3D7 erythrocytic growth, LDH absorbance, 72 h; at 2 µM; hits give high values
// values below are reported growth inhibition
Respond with the bare value in %.

Some solved entries appear below for comparison.
Query: Quick one: give measured growth inhibition for CC(=O)Oc1cc(OCc2ccccc2)c(OC(C)=O)c(OCc2ccccc2)c1
Reply: 94

Query: Entry Cc1cc(NN=Cc2ccccc2[N+](=O)[O-])c2cc(F)ccc2n1 needs its growth inhibition filled in; supply it.
Reply: 102

Query: Tell me measured growth inhibition for CC1CCN(CC[C@H]2CCCN2S(=O)(=O)c2cccc(NC(=O)c3ccc(-c4ccccc4)cc3)c2)CC1 please.
Reply: 87

Query: Write down growth inhibition measured for item Cc1ccc(-n2c(Sc3ncnc4sccc34)nnc2N2CCCC2)cc1
Reply: 99

Query: Give growth inhibition for COc1ccc(CN2CCN(CCCCNC(=O)c3ccc(NC(=O)c4ccc(Cl)cc4)cc3)CC2)c(OC)c1
Reply: 94

Query: Please report the measured growth inhibition for O=c1cc(NCCCNCc2cc(Cl)c(Cl)cc2Cl)[nH]c2ccccc12
Reply: 93

Query: Please report the measured growth inhibition for Oc1ccc(Br)cc1C(O)CNCc1ccccc1OCc1ccccc1 (stereo not given)
Reply: 101

Query: Report growth inhibition for Cc1cc(NC(=O)NCCN2CCC(NC(=O)c3cccc(Br)c3)C2)c2ccccc2n1 (stereo not given)
Reply: 100

Next:
Query: Supply measured growth inhibition of Nc1ncc(Cc2cc(Cl)c(N)c3ncccc23)c(N)n1 in your reply.
Reply: 89

Query: Given the molecule CN(C)C(=NCCCCCCN=C(NC(N)=NCc1ccc(Cl)c(Cl)c1)N(C)C)NC(N)=NCc1ccc(Cl)c(Cl)c1 , write its reported growth inhibition.
Reply: 93

Cited source: PubChem BioAssay
